System: PXR:RXRa (NR concentration 270 nM, RXRa partner concentration 90 nM)
Assay: PBM binding z-score (relative to random genomic background probes); higher = stronger binding; sequences stand for … in GC…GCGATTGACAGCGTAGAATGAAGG
Classification field: enter class 1 for PBM binding z-score values not below 2, class 0 for values below it.

Here's what some known entries look like.
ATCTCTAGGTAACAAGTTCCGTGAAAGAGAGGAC
class 0
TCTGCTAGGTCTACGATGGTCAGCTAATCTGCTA
class 0
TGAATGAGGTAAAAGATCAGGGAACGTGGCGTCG
class 0
CGTCATAGTTCAACTAAGGTAACGTAAAGCACGC
class 1
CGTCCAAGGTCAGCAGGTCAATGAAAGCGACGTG
class 1
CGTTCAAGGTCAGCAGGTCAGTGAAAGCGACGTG
class 1
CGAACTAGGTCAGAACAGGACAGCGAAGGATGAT
class 0
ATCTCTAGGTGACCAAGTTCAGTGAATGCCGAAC
class 1
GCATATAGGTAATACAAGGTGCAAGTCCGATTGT
class 0
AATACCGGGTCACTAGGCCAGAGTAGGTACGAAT
class 1

(Q) Does the reported PBM binding z-score for TCATATAGGTAAATGCTAGGAGAAAGTCCGATCT fall at or above the 2 mark?
(A) class 0

(Q) Does the reported PBM binding z-score for CCAAGCAGGCCAATCTGGGTCACTCAAGGCTTGA fall at or above the 2 mark?
(A) class 0

(Q) Does the reported PBM binding z-score for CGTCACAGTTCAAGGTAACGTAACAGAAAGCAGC fall at or above the 2 mark?
(A) class 0

(Q) Does the reported PBM binding z-score for GCTTGGAGGACAAGGTCAGAGCTTTGTCCGTAGA fall at or above the 2 mark?
(A) class 0

(Q) Does the reported PBM binding z-score for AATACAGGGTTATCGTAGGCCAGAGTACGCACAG fall at or above the 2 mark?
(A) class 0

(Q) Does the reported PBM binding z-score for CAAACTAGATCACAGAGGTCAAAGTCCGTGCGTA fall at or above the 2 mark?
(A) class 1

(Q) Does the reported PBM binding z-score for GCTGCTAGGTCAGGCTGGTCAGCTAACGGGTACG fall at or above the 2 mark?
(A) class 0

(Q) Does the reported PBM binding z-score for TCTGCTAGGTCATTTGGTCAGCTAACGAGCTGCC fall at or above the 2 mark?
(A) class 0

(Q) Does the reported PBM binding z-score for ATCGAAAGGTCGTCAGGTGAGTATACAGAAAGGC fall at or above the 2 mark?
(A) class 1

(Q) Does the reported PBM binding z-score for CCTGCTTGGTCAATGGTCAGCTAAAGCAGCTCGC fall at or above the 2 mark?
(A) class 0

----------
Tested on: THRa homodimer (NR concentration 90 nM)
Assay: PBM binding z-score (relative to random genomic background probes); higher = stronger binding; sequences stand for … in GC…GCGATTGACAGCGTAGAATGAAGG
For each of the sequences below, state its PBM binding z-score.
One number for each entry.

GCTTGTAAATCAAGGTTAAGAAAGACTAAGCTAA
-0.456

Provide each entry's PBM binding z-score from the list below.
1. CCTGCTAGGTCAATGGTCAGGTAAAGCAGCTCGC
2. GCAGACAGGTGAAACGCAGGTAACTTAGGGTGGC
3. ATCTCTAGGTAAGACTCAGTTCAGTAAAGAACGC
4. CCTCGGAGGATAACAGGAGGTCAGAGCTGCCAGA

(A)
[1.34, -0.353, 0.878, 0.791]

----------
System: VDR:RXRa (NR concentration 270 nM, RXRa partner concentration 90 nM)
Test: PBM binding z-score (relative to random genomic background probes); higher = stronger binding; sequences stand for … in GC…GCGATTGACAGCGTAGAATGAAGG
For each of the sequences below, state its PBM binding z-score.
One number for each entry.

The following sequences have reported results that may help.
GCATATAGGTACTACAAGGTGAAAGTCCGATTGT
0.143
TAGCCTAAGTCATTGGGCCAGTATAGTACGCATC
-0.202
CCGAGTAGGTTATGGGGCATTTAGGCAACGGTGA
-0.0639
GATACAGGGTTAAGGCCAGAGTACGCGTATTGAT
1.05
CAGACTAGGTCAGGGCCAGTATAGGAGGAACGTT
-0.0309

Provide each entry's PBM binding z-score from the list below.
1. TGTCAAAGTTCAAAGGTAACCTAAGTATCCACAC
2. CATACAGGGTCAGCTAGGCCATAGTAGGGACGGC

(A)
1: 5.12; 2: 4.92

----------
Tested on: PPARg:RXRa 270nM:90nM, anti-RXR (NR concentration 270 nM, RXRa partner concentration 90 nM)
Assay: PBM binding z-score (relative to random genomic background probes); higher = stronger binding; sequences stand for … in GC…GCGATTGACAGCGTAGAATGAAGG
Classification field: enter MET for PBM binding z-score values not below 3, NOT MET for values below it.

Here's what some known entries look like.
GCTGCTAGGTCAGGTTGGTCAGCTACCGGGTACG
NOT MET
ATCGAAAGGTCGTGAGGTCAGTATACAGAAAGGC
MET
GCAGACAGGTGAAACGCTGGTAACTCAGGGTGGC
NOT MET
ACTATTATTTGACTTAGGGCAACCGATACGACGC
NOT MET
ACTCGCAGGCCAAGTTTGGGTCACTCAAACAAAG
NOT MET
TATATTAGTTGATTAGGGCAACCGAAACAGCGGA
NOT MET

# evaluate next
(Q) Does the reported PBM binding z-score for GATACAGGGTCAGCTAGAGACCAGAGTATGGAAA fall at or above the 3 mark?
(A) MET

----------
For each of the sequences below, state its PBM binding z-score.
System: PPARg:RXRa 30nM:10nM, anti-RXR (NR concentration 30 nM, RXRa partner concentration 10 nM)
Test: PBM binding z-score (relative to random genomic background probes); higher = stronger binding; sequences stand for … in GC…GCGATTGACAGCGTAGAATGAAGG

The following sequences have reported results that may help.
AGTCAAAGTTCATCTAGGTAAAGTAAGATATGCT
3.75
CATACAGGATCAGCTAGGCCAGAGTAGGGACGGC
-0.274

Provide each entry's PBM binding z-score from the list below.
1. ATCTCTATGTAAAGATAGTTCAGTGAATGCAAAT
2. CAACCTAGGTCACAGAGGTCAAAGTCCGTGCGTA
3. ACTCGGAGGACGAAGGTCAGAGCTACGCCAGTGA
4. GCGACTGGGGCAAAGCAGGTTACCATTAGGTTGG

(A)
[0.319, 3.63, 1.07, -0.263]

Provide each entry's PBM binding z-score from the list below.
1. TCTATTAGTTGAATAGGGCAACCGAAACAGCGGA
2. GCAGACAGGTGAAACGCAGGTATCTCAGGGTGGC
3. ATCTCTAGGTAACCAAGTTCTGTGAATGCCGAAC
4. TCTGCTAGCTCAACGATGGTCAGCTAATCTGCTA
5. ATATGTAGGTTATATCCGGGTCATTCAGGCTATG
6. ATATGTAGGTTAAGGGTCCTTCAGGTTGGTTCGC
7. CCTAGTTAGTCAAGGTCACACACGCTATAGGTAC
8. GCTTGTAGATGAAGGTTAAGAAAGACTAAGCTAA

(A)
3.61
-0.675
0.343
1.25
1.69
8.31
1.02
-0.144

Provide each entry's PBM binding z-score from the list below.
1. CCTACTGGGCCACGAAAGGTCATTGACTCAGTGA
2. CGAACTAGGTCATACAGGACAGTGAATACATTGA
3. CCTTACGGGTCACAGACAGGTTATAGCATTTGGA
4. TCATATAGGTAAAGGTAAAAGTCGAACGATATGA
5. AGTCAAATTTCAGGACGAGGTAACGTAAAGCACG
6. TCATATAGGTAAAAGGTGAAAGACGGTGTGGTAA
7. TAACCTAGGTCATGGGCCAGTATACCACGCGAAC
8. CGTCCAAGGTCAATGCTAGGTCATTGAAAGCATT

(A)
1. 2.71
2. 3.84
3. 2.14
4. 4.13
5. -0.0529
6. 9.9
7. 2.54
8. 1.89

----------
System: RARg homodimer (NR concentration 270 nM)
Assay: PBM binding z-score (relative to random genomic background probes); higher = stronger binding; sequences stand for … in GC…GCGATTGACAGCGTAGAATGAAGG
For each of the sequences below, state its PBM binding z-score.

The following sequences have reported results that may help.
ACGGACAGGTGATGAAGGTAACTCAGGCTATCAT
0.813
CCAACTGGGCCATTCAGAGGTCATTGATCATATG
2.94
AGAATGAGGTTATTCGTAGATCAGGGAAGAAAGT
0.782

The measured PBM binding z-score associated with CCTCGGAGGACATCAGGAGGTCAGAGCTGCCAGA reads 3.04
